- Tgt: GST-Bcl-2 (Homo sapiens)
- Sequence (P10415 whole entry): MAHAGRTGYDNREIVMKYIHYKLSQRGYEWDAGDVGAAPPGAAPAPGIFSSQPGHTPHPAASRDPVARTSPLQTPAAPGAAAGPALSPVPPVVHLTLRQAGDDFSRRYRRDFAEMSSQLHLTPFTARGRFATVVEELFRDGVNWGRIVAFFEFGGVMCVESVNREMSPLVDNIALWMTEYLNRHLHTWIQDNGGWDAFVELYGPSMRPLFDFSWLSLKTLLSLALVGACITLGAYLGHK
Experimental readout: pKi
Notebook: values listed as pKi are -log10 of the concentration (mol/L).

Below: 5 compounds and their reported pKi.
{"columns": ["Compound", "Data value"],
 "data": [
  ["O=C(NS(=O)(=O)c1ccccc1)c1ccc(N2CCN(Cc3ccccc3-c3ccc(Cl)cc3)CC2)cc1 [Example 6]", 6.67],
  ["CC1(C)CCC(CN2CCN(c3ccc(C(=O)NS(=O)(=O)c4cccc5cnccc45)c(Oc4ccc5[nH]ccc5c4)c3)CC2)=C(c2ccc(Cl)cc2)C1 [Example 37]", 7.97],
  ["O=C(NS(=O)(=O)c1ccc(F)cc1)c1ccc(N2CCN(Cc3ccccc3-c3ccc(Cl)cc3)CC2)cc1Oc1ccccc1 [Example 24]", 7.99],
  ["O=C(NS(=O)(=O)c1ccc(Cl)c([N+](=O)[O-])c1)c1ccc(N2CCN(Cc3ccccc3-c3ccc(Cl)cc3)CC2)cc1Oc1ccccc1 [Example 27]", 8.38],
  ["O=C(NS(=O)(=O)c1ccc([N+](=O)[O-])cc1)c1ccc(N2CCN(Cc3ccccc3-c3ccc(Cl)cc3)CC2)cc1Oc1ccccc1 [Example 22]", 7.76]
]}

API: the following record is the query input.
Look up pKi: CC1(C)CCC(CN2CCN(c3ccc(C(=O)NS(=O)(=O)c4ccc5ccccc5c4)c(Oc4ccc5[nH]ccc5c4)c3)CC2)=C(c2ccc(Cl)cc2)C1 [Example 36]
7.50
